meta.source: ChEMBL document CHEMBL2384907

- System name: Toll-like receptor 4 (Mus musculus) (UniProt Q9QUK6)
- Sequence (Q9QUK6 whole entry): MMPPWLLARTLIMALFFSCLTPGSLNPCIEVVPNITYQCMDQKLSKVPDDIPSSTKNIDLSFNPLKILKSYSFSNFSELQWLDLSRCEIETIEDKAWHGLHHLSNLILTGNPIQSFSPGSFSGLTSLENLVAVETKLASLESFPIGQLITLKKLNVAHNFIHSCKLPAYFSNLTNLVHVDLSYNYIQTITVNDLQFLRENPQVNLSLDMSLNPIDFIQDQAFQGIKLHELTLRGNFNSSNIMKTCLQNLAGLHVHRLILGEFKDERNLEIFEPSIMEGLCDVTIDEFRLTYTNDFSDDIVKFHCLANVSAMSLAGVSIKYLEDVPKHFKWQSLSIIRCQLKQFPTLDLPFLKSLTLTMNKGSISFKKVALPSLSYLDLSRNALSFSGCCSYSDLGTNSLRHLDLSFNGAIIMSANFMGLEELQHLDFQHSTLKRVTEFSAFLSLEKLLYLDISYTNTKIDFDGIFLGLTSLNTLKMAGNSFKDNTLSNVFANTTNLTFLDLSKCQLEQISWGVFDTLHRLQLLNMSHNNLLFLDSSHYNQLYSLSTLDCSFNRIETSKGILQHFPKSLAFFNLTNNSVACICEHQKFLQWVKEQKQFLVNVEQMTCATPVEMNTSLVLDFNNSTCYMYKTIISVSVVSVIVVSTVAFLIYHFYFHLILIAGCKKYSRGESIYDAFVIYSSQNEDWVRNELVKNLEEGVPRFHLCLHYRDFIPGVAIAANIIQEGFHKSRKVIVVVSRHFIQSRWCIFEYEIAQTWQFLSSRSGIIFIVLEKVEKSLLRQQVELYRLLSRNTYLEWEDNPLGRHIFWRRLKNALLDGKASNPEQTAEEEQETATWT
- Assay notes: Activation of TLR4 in C57BL/6 mouse BMDC cells assessed as AUC of IL6 release after 18 hrs by ELISA relative to N-cyclohexyl-2-(4-oxo-3-phenyl-4,5-dihydro-3H-pyrimido[5,4-b]indol-2-ylthio)acetamide
- Assay type: cell-based
Parameter measured: Activity (%)

The examples below pair each entry with its known result.
>>> numeric_readout("O=C(CSc1nc2c([nH]c3ccccc32)c(=O)n1-c1ccccc1)NCc1ccco1")
18
>>> numeric_readout("O=C(CSc1nc2c([nH]c3ccccc32)c(=O)n1-c1ccc(F)cc1)NC1CCCCC1")
48
>>> numeric_readout("N#CCn1c2ccccc2c2nc(SCC(=O)NC3CCCCC3)n(-c3ccccc3)c(=O)c21")
98

[P] CCCCNC(=O)CSc1nc2c([nH]c3ccccc32)c(=O)n1-c1ccccc1
[Q] O=C(CSc1nc2c([nH]c3ccccc32)c(=O)n1-c1ccccc1)Nc1ccc2cn[nH]c2c1
Q. I need your help: which of the pair P , Q has higher Activity? Return value: the label identifying the chosen record.
A. P
